Attribution: patent US7772271B2

# melting point per record follows

Below are worked cases with known answers.
{"COMPOUND": "CCn1c(-c2ccc(NC(=O)OC(C)(C)C)cc2)c(C#N)c2ccc(N3CCN(CC4CC4)CC3)cc21 [Compound 1389]", "melting point": "171 to 173 °C"}
{"COMPOUND": "COCCOc1ccc2c(C#N)c(-c3ccc(NC(=O)OCc4ccccc4)cc3)n(C3CCC3)c2c1 [Compound 1402]", "melting point": "144 to 145 °C"}

Could you now look at the following compound, please?
Challenge: Entry CCn1c(-c2ccc(NC(=O)N(C)Cc3ccccc3)cc2)c(C#N)c2ccc(OCCOC)cc21 [Compound 1384] needs its melting point filled in; supply it.
Response given: 175 to 176 °C

----------
# melting point per record follows

{"MOLECULE": "CC(C)OC(=O)Nc1ccc(-c2c(C#N)c3ccc(OCCC(O)CO)cc3n2C2CCC2)cc1 (stereo not shown) [compound 1429]", "melting point": "132 to 134 °C"}
{"MOLECULE": "CC(C)OC(=O)Nc1ccc(-c2c(C#N)c3cc(OCCCn4cccn4)ccc3n2C2CCC2)cc1 [Compound 2606]", "melting point": "148 to 150 °C"}
{"MOLECULE": "CCn1ccnc1COc1ccc2c(C#N)c(-c3ccc(NC(=O)OC(C)C)cc3)n(C3CCC3)c2c1 [Compound 2881]", "melting point": "197 to 203 °C"}
{"MOLECULE": "CSc1nccc(Oc2ccc3c(C#N)c(-c4ccc(NC(=O)O[C@H](C)C5CC5)cc4)n(C4CCC4)c3c2)n1 [Compound 3089]", "melting point": "172 to 177 °C"}
{"MOLECULE": "CCn1c(-c2ccc(NC(=O)N(CCOC)CCOC)cc2)c(C#N)c2ccc(OCCOC)cc21 [Compound 1382]", "melting point": "110 to 114 °C"}

Challenge: Entry CC(C)n1c(-c2ccc(NC(=O)O[C@H](C)C3CC3)cc2)c(C#N)c2ccc(N3CCOCC3)cc21 [Compound 2942] needs its melting point filled in; supply it.
Response given: 191 to 193 °C

Challenge: Entry CC(C)CS(=O)(=O)Nc1ccc(-c2c(C#N)c3ccc(OCS(C)(=O)=O)cc3n2C2CCC2)cc1 [Compound 2991] needs its melting point filled in; supply it.
Response given: 221 to 225 °C

Challenge: Entry Cc1nccc(Oc2ccc3c(C#N)c(-c4ccc(NC(=O)NC(C)C)cc4)n(C4CCC4)c3c2)n1 [Compound 2761] needs its melting point filled in; supply it.
Response given: 240 to 245 °C

Challenge: Entry COCCN(C)C(=O)c1ccc2c(C#N)c(-c3ccc(NC(=O)O[C@H](C)C4CC4)cc3)n(C3CCC3)c2c1 [Compound 2791] needs its melting point filled in; supply it.
Response given: 96 to 98 °C

Challenge: Entry COc1ccnc(Oc2ccc3c(C#N)c(-c4ccc(NC(=O)OC(C)C)cc4)n(C4CCC4)c3c2)n1 [Compound 2739] needs its melting point filled in; supply it.
Response given: 179 to 183 °C

Challenge: Entry CCOc1ccc2c(C#N)c(-c3ccc(NC(=O)NCCc4ccccn4)cc3)n(C3CCC3)c2c1 [Compound 1392] needs its melting point filled in; supply it.
Response given: 193 to 197 °C

Challenge: Entry N#Cc1c(-c2ccc(Nc3cccc(OC(F)(F)F)c3)cc2)n(C2CCC2)c2cc(OC3CCOCC3)ccc12 [Compound 3129] needs its melting point filled in; supply it.
Response given: 108 to 110 °C

Challenge: Entry CCCS(=O)(=O)Nc1ccc(-c2c(C#N)c3ccc(Oc4cccnc4Cl)cc3n2C2CC2)cc1 [Compound 2936] needs its melting point filled in; supply it.
Response given: 209 to 210 °C
